target: TDO (A172 human glioblastoma cells) (Homo sapiens)
Construct: This assay utilised cancer cells which expressed either TDO or IDO; endogenous in cells; host or cells: A172 human glioblastoma cells
experimentDescription: A172 Kynurenine cell based assay
conditionInfo: 500 μM L-tryptophan, 48 hours, kynurenine by Erhlich's reagent
metricName: A172 Kynurenine cell based assay pIC50

>>> measured("CC(=O)N1CC=C(c2c[nH]c3c(F)cc(F)cc23)CC1")
"+ (+ = pIC50 4.00-4.99)"
>>> measured("CC(=O)N1CCC(c2c[nH]c3cc(F)c(Cl)cc23)CC1")
"+ (+ = pIC50 4.00-4.99)"
>>> measured("CN(C)CCOc1ccc2c(C3=CCN(S(C)(=O)=O)CC3)c[nH]c2c1")
"+ (+ = pIC50 4.00-4.99)"

---

target: Recombinant human TDO (Homo sapiens, UniProt P48775)
Sequence (P48775 whole entry): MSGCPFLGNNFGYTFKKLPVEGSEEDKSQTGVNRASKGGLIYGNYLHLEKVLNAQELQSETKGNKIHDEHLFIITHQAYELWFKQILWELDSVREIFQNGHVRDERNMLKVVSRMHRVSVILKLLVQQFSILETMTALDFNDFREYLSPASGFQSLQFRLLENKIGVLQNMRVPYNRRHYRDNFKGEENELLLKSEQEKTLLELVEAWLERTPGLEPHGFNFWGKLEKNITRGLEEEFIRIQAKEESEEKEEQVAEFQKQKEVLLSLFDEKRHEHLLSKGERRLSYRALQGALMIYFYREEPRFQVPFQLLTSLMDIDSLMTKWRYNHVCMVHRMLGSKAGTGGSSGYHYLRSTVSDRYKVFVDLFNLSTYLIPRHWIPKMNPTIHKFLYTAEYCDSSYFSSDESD
experimentDescription: hTDO biochemical coupled assay
conditionInfo: 330 μM L-tryptophan, coupled with kynurenine formamidase
metricName: hTDO biochemical assay pIC50

>>> measured("Cc1ccc2[nH]cc(C3=CCN(S(C)(=O)=O)CC3)c2c1 [Compound 92]")
"+ (+ = pIC50 4.00-4.99)"
>>> measured("COc1ccc2[nH]cc(C3=CCN(C(C)=O)CC3)c2c1 [Compound 70]")
"+ (+ = pIC50 4.00-4.99)"
>>> measured("CC(=O)N1CC=C(c2c[nH]c3ccc(Cl)cc23)CC1 [Compound 165]")
"+ (+ = pIC50 4.00-4.99)"

---

target: TDO (A172 human glioblastoma cells) (Homo sapiens, UniProt P48775)
Construct: This assay utilised cancer cells which expressed either TDO or IDO; endogenous in cells; host or cells: A172 human glioblastoma cells
Sequence (P48775 whole entry): as above
experimentDescription: A172 Kynurenine cell based assay
conditionInfo: 500 μM L-tryptophan, 48 hours, kynurenine by Erhlich's reagent
metricName: A172 Kynurenine cell based assay pIC50

>>> measured("Cn1cnc(S(=O)(=O)N2CCC(c3c[nH]c4ccccc34)CC2)c1")
"+ (+ = pIC50 4.00-4.99)"
>>> measured("CC(=O)N1CCC(c2c[nH]c3ncccc23)CC1")
"+− (+− = pIC50 <4.00)"
>>> measured("COc1ccc2[nH]cc(C3CCN(S(=O)(=O)c4ccc(Br)cc4OC(F)(F)F)CC3)c2c1")
"+− (+− = pIC50 <4.00)"
>>> measured("CS(=O)(=O)N1CCC(c2c[nH]c3ccc(C#N)cc23)CC1")
"+ (+ = pIC50 4.00-4.99)"
>>> measured("CN(C)CCNC(=O)N1CCC(c2c[nH]c3ccccc23)CC1")
"+ (+ = pIC50 4.00-4.99)"
>>> measured("Cc1cccc2c(C3CCN(C(=O)c4cnn(-c5ccccc5)c4C(F)(F)F)CC3)c[nH]c12")
"+ (+ = pIC50 4.00-4.99)"
>>> measured("CS(=O)(=O)N1CCC(c2c[nH]c3cc(Cl)ccc23)CC1")
"+ (+ = pIC50 4.00-4.99)"

---

target: TDO (A172 human glioblastoma cells) (Homo sapiens)
Construct: This assay utilised cancer cells which expressed either TDO or IDO; endogenous in cells; host or cells: A172 human glioblastoma cells
experimentDescription: A172 Kynurenine cell based assay
conditionInfo: 500 μM L-tryptophan, 48 hours, kynurenine by Erhlich's reagent
metricName: A172 Kynurenine cell based assay pIC50

>>> measured("CS(=O)(=O)N1CCC(c2c[nH]c3ccncc23)CC1 [Compound 175]")
"+ (+ = pIC50 4.00-4.99)"
>>> measured("CC(=O)N1CCC(c2c[nH]c3cc(F)cc(F)c23)CC1 [Compound 202]")
"+ (+ = pIC50 4.00-4.99)"
>>> measured("CC(=O)N1CC=C(c2c[nH]c3ncccc23)CC1 [Compound 105]")
"+− (+− = pIC50 <4.00)"
>>> measured("CC(=O)N1CC=C(c2c(C)[nH]c3ccccc23)CC1 [Compound 104]")
"+− (+− = pIC50 <4.00)"
>>> measured("O=S(=O)(c1ccccc1OC(F)(F)F)N1CCC(c2c[nH]c3ccc(F)cc23)CC1 [Compound 51]")
"+ (+ = pIC50 4.00-4.99)"
>>> measured("Cc1cccc2c(C3CCN(C(=O)c4ccccc4OC(F)(F)F)CC3)c[nH]c12 [Compound 59]")
"+ (+ = pIC50 4.00-4.99)"
>>> measured("Cc1ccc2[nH]cc(C3CCN(S(=O)(=O)c4cccc(Cl)c4C)CC3)c2c1 [Compound 32]")
"+− (+− = pIC50 <4.00)"
>>> measured("COc1cccc2c(C3=CCN(C(C)=O)CC3)c[nH]c12 [Compound 88]")
"+ (+ = pIC50 4.00-4.99)"
>>> measured("O=C(C1CC1)N1CCC(c2c[nH]c3ccccc23)CC1 [Compound 71]")
"+ (+ = pIC50 4.00-4.99)"
>>> measured("CS(=O)(=O)N1CCC(c2c[nH]c3cc(Cl)c(F)cc23)CC1 [Compound 243]")
"+ (+ = pIC50 4.00-4.99)"
>>> measured("Cc1cccc2c(C3CCN(C(=O)c4cc(Cl)cnc4Cl)CC3)c[nH]c12 [Compound 28]")
"+− (+− = pIC50 <4.00)"

---

target: TDO (A172 human glioblastoma cells) (Homo sapiens)
Construct: This assay utilised cancer cells which expressed either TDO or IDO; endogenous in cells; host or cells: A172 human glioblastoma cells
experimentDescription: A172 Kynurenine cell based assay
conditionInfo: 500 μM L-tryptophan, 48 hours, kynurenine by Erhlich's reagent
metricName: A172 Kynurenine cell based assay pIC50

>>> measured("COCCNC(=O)N1CCC(c2c[nH]c3ccccc23)CC1 [Compound 212]")
"+ (+ = pIC50 4.00-4.99)"
>>> measured("CC(=O)N1CCC(c2c[nH]c3ccc(C(F)(F)F)cc23)CC1 [Compound 241]")
"+ (+ = pIC50 4.00-4.99)"
>>> measured("Cc1cccc2c(C3CCN(S(=O)(=O)c4cc(F)c(F)cc4Cl)CC3)c[nH]c12 [Compound 38]")
"+ (+ = pIC50 4.00-4.99)"

---

target: TDO (A172 human glioblastoma cells) (Homo sapiens, UniProt P48775)
Construct: This assay utilised cancer cells which expressed either TDO or IDO; endogenous in cells; host or cells: A172 human glioblastoma cells
experimentDescription: A172 Kynurenine cell based assay
conditionInfo: 500 μM L-tryptophan, 48 hours, kynurenine by Erhlich's reagent
metricName: A172 Kynurenine cell based assay pIC50

>>> measured("CCc1cc(Br)ccc1S(=O)(=O)N1CCC(c2c[nH]c3ccc(OC)cc23)CC1")
"+− (+− = pIC50 <4.00)"
>>> measured("CCNC(=O)N1CCC(c2c[nH]c3ccccc23)CC1")
"+ (+ = pIC50 4.00-4.99)"
>>> measured("COc1ccc2[nH]cc(C3=CCN(C(C)=O)CC3)c2c1")
"+− (+− = pIC50 <4.00)"
>>> measured("CS(=O)(=O)N1CCC(c2c[nH]c3cccc(F)c23)CC1")
"+ (+ = pIC50 4.00-4.99)"
>>> measured("CC(=O)N1CC=C(c2c[nH]c3ccncc23)CC1")
"+ (+ = pIC50 4.00-4.99)"
>>> measured("COc1cccc2[nH]cc(C3=CCN(C(C)=O)CC3)c12")
"+ (+ = pIC50 4.00-4.99)"
>>> measured("CC(=O)N1CCN(c2c[nH]c3ccccc23)CC1C#N (stereo not shown)")
"+ (+ = pIC50 4.00-4.99)"

---

target: TDO (A172 human glioblastoma cells) (Homo sapiens)
Construct: This assay utilised cancer cells which expressed either TDO or IDO; endogenous in cells; host or cells: A172 human glioblastoma cells
experimentDescription: A172 Kynurenine cell based assay
conditionInfo: 500 μM L-tryptophan, 48 hours, kynurenine by Erhlich's reagent
Procedure: Exemplary compounds of the invention were prepared, and tested to determine their effect as TDO and/or IDO inhibitors. […] This coupled enzyme system allowed conversion of N-formylkynurenine produced by TDO or IDO activity to kynurenine which was then quantified by fluorescence following addition of Erhlich's Reagent The protocols for these are set out below. […]
metricName: A172 Kynurenine cell based assay pIC50

>>> measured("COc1ccc2[nH]cc(C3CCN(S(=O)(=O)c4ccc(C(F)(F)F)cc4Cl)CC3)c2c1 [Compound 43]")
"+ (+ = pIC50 4.00-4.99)"
>>> measured("Cc1cccc2c(C3CCN(S(=O)(=O)c4ccc(C(C)(C)C)cc4)CC3)c[nH]c12 [Compound 40]")
"+ (+ = pIC50 4.00-4.99)"
>>> measured("CC(=O)N1CCC(c2c[nH]c3ccc(C#N)cc23)CC1 [Compound 233]")
"+ (+ = pIC50 4.00-4.99)"
>>> measured("Cc1[nH]c2ccccc2c1C1CCN(C(=O)C2CCCO2)CC1 (stereo not shown) [Compound 17]")
"+− (+− = pIC50 <4.00)"
>>> measured("CN1CC2CN(c3c[nH]c4ccccc34)CCN2C1=O (stereo not shown) [Compound 192]")
"+ (+ = pIC50 4.00-4.99)"
>>> measured("Cc1ccc2[nH]cc(C3CCN(S(=O)(=O)c4cc(C)c(Cl)cc4Cl)CC3)c2c1 [Compound 31]")
"+− (+− = pIC50 <4.00)"
>>> measured("Cc1[nH]c2ccccc2c1C1=CCN(S(C)(=O)=O)CC1 [Compound 160]")
"+− (+− = pIC50 <4.00)"
>>> measured("CS(=O)(=O)N1CCC(C2C(=O)Nc3cc(F)ccc32)CC1 (stereo not shown) [Compound 178]")
"+− (+− = pIC50 <4.00)"
>>> measured("O=C(c1cccs1)N1CCC(c2c[nH]c3ccccc23)CC1 [Compound 11]")
"+ (+ = pIC50 4.00-4.99)"
>>> measured("CCc1cc(Br)ccc1S(=O)(=O)N1CCC(c2c[nH]c3ccc(C)cc23)CC1 [Compound 50]")
"+ (+ = pIC50 4.00-4.99)"
>>> measured("O=C(C1CC(=O)N(C2CCCC2)C1)N1CCC(c2c[nH]c3cc(F)ccc23)CC1 (stereo not shown) [Compound 276]")
"+ (+ = pIC50 4.00-4.99)"
>>> measured("CC(=O)N1CC=C(c2c[nH]c3cccnc23)CC1 [Compound 157]")
"+ (+ = pIC50 4.00-4.99)"
>>> measured("Fc1ccc2c(C3CCN(c4ccncc4)CC3)c[nH]c2c1 [Compound 301]")
"+ (+ = pIC50 4.00-4.99)"
>>> measured("Cn1cnc(C(=O)N2CCC(c3c[nH]c4cc(F)ccc34)CC2)c1 [Compound 272]")
"+ (+ = pIC50 4.00-4.99)"
>>> measured("Cc1ccc2c(C3CCN(S(C)(=O)=O)CC3)c[nH]c2c1 [Compound 207]")
"+ (+ = pIC50 4.00-4.99)"
>>> measured("Cc1[nH]c2ccccc2c1C1CCN(S(=O)(=O)c2ccc([N+](=O)[O-])cc2)CC1 [Compound 25]")
"+− (+− = pIC50 <4.00)"
>>> measured("CN(C)CC(=O)N1CCC(c2c[nH]c3ccccc23)CC1 [Compound 81]")
"+− (+− = pIC50 <4.00)"
>>> measured("Cc1cccc2c(C3CCN(C(=O)c4ccc(F)c(C(F)(F)F)c4)CC3)c[nH]c12 [Compound 54]")
"+ (+ = pIC50 4.00-4.99)"
>>> measured("CS(=O)(=O)N1CCC(c2c[nH]c3c(F)cccc23)CC1 [Compound 194]")
"+ (+ = pIC50 4.00-4.99)"
>>> measured("COCCN1CC(C(=O)N2CCC(c3c[nH]c4cc(F)ccc34)CC2)CC1=O (stereo not shown) [Compound 283]")
"+ (+ = pIC50 4.00-4.99)"
>>> measured("COc1ccc(Cl)cc1S(=O)(=O)N1CCC(c2c[nH]c3c(C)cccc23)CC1 [Compound 45]")
"+ (+ = pIC50 4.00-4.99)"
>>> measured("CCNS(=O)(=O)N1CCC(c2c[nH]c3ccccc23)CC1 [Compound 258]")
"+ (+ = pIC50 4.00-4.99)"
